inhibition at 1 µM values, listed per item
molecular target: b-Raf (Homo sapiens, UniProt P15056); construct: Full-length wild type b-Raf is expressed in recombinant form and purified from bacterial or insect cells; made in house; host or cells: bacterial or insect cells; test: Raf biochemical assay (in vitro kinase assay, 32-P transfer from ATP to Mek1); conditions: @ 1 μM compound; full-length wild type b-Raf, Mek1 substrate; read-out: b-Raf % inhib @ 1 μM
Sequence (P15056 whole entry): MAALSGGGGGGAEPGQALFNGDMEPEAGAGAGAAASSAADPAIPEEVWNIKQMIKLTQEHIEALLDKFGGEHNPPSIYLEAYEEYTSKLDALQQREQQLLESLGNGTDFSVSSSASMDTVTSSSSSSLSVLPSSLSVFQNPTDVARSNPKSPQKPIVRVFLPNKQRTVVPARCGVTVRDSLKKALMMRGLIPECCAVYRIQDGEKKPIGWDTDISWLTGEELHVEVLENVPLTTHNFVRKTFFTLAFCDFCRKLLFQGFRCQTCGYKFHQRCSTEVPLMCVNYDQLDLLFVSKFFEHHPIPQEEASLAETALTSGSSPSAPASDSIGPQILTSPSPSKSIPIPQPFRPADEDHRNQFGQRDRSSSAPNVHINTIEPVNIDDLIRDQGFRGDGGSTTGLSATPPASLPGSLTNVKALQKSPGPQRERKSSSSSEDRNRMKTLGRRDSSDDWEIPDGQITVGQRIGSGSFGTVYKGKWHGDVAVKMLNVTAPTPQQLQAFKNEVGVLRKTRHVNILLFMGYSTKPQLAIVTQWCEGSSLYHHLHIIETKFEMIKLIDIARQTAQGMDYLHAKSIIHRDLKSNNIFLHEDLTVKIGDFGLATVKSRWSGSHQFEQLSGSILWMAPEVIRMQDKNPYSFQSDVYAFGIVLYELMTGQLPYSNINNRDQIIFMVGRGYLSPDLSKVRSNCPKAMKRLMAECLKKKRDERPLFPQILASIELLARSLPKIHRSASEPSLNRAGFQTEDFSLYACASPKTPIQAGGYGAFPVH
MEASURED ENDPOINT: inhibition at 1 µM (%)

>  <COMPOUND>
Cc1cc(-c2nn(C(C)C)cc2-c2ccnc(NC[C@H](C)O)n2)cnc1N

>  <MEAS VALUE>
98

$$$$
>  <COMPOUND>
CNc1ccc(-c2nn(C(C)C)cc2-c2ccnc(NC[C@H](C)O)n2)cn1

>  <MEAS VALUE>
97

$$$$
>  <COMPOUND>
CC(C)n1cc(-c2ccnc(NCCO)n2)c(-c2cnc3[nH]ccc3c2)n1

>  <MEAS VALUE>
101

$$$$
>  <COMPOUND>
CC(C)n1cc(-c2ccnc(NCC3CCOC3)n2)c(-c2cnc3[nH]ccc3c2)n1 (stereo not shown)

>  <MEAS VALUE>
99

$$$$
>  <COMPOUND>
CNc1ncc(-c2nn(C(C)C)cc2-c2ccnc(NC[C@H](C)O)n2)cc1C

>  <MEAS VALUE>
74

$$$$
>  <COMPOUND>
CC(C)n1cc(-c2ccnc(NCCn3ccccc3=O)n2)c(-c2cnc3[nH]ccc3c2)n1

>  <MEAS VALUE>
100

$$$$
>  <COMPOUND>
C[C@H](O)CNc1nccc(-c2cn(CC(F)F)nc2-c2cnc3[nH]ccc3c2)n1

>  <MEAS VALUE>
100

$$$$
>  <COMPOUND>
Cc1nc(CNc2nccc(-c3cn(C(C)C)nc3-c3cnc4[nH]ccc4c3)n2)c(C)o1

>  <MEAS VALUE>
100

$$$$
>  <COMPOUND>
CC(CO)Nc1nccc(-c2cn(C(C)C)nc2-c2cnc3[nH]ccc3c2)n1 (stereo in doubt)

>  <MEAS VALUE>
100

$$$$
>  <COMPOUND>
CCN1CC(CNc2nccc(-c3cn(C(C)C)nc3-c3cnc4[nH]ccc4c3)n2)CC1=O (stereo not shown)

>  <MEAS VALUE>
99

$$$$

---

target: b-Raf (Homo sapiens); construct: Full-length wild type b-Raf is expressed in recombinant form and purified from bacterial or insect cells; test: Raf biochemical assay (in vitro kinase assay, 32-P transfer from ATP to Mek1); settings: full-length wild type b-Raf, Mek1 substrate, 25 μM ATP
Threshold 5 nM. Ki below it: MET. Ki at it or above: NOT MET.

>  <COMPOUND>
C[C@H](O)CNc1nccc(-c2cn(CC(F)F)nc2-c2cnc3[nH]cc(Cl)c3c2)n1

>  <CAT>
MET

$$$$
>  <COMPOUND>
COCCNc1nccc(-c2cn(C(C)C)nc2-c2cnc3[nH]ccc3c2)n1

>  <CAT>
MET

$$$$
>  <COMPOUND>
Cc1n[nH]c2ncc(-c3nn(C(C)C)cc3-c3ccnc(NC[C@H](C)O)n3)cc12

>  <CAT>
MET

$$$$
>  <COMPOUND>
C[C@H](O)CNc1nccc(-c2cn(CC3(C)COC3)nc2-c2cnc3[nH]ccc3c2)n1

>  <CAT>
NOT MET

$$$$
>  <COMPOUND>
Cc1cc(-c2nn(C(C)C)cc2-c2ccnc(NC[C@H](C)O)n2)cnc1N

>  <CAT>
NOT MET

$$$$
>  <COMPOUND>
CC(C)n1cc(-c2ccnc(NCc3ccccn3)n2)c(-c2cnc3[nH]ccc3c2)n1

>  <CAT>
NOT MET

$$$$
>  <COMPOUND>
Cc1cc2cc(-c3nn(C(C)C)cc3-c3ccnc(NC[C@H](C)O)n3)cnc2[nH]1

>  <CAT>
NOT MET

$$$$
>  <COMPOUND>
CC(C)n1cc(-c2ccnc(NCCn3ccccc3=O)n2)c(-c2cnc3[nH]ccc3c2)n1

>  <CAT>
MET

$$$$
>  <COMPOUND>
CCN1CC(CNc2nccc(-c3cn(C(C)C)nc3-c3cnc4[nH]ccc4c3)n2)CC1=O (stereo not shown)

>  <CAT>
MET

$$$$
>  <COMPOUND>
CNc1ncc(-c2nn(C(C)C)cc2-c2ccnc(NC[C@H](C)O)n2)cc1C

>  <CAT>
NOT MET

$$$$
>  <COMPOUND>
CC(C)n1cc(-c2ccnc(NC[C@H](C)O)n2)c(-c2cnc3c(c2)CCN3)n1

>  <CAT>
MET

$$$$
>  <COMPOUND>
Cc1[nH]c2ncc(-c3nn(C(C)C)cc3-c3ccnc(NC[C@H](C)O)n3)cc2c1C

>  <CAT>
MET

$$$$
>  <COMPOUND>
CC(C)n1cc(-c2ccnc(NC[C@H](C)O)n2)c(-c2cnc3[nH]ncc3c2)n1

>  <CAT>
MET

$$$$
>  <COMPOUND>
CC(CO)Nc1nccc(-c2cn(C(C)C)nc2-c2cnc3[nH]ccc3c2)n1 (stereo in doubt)

>  <CAT>
MET

$$$$
>  <COMPOUND>
C[C@H](O)CNc1nccc(-c2cn(CC3(C)COC3)nc2-c2cnc3[nH]cc(Cl)c3c2)n1

>  <CAT>
MET

$$$$

The measured values listed here are drawn from patent US7772246B2.
